Data provenance: ChEMBL document CHEMBL3988442

Recorded Percent Effect, one value per entry.
System: Plasmodium falciparum
Test: Plasmodium falciparum sporozoite viability assay; also: in the data most compounds retested in dose-response had high values
Format: functional, organism-based
About 290 (0.85%) of roughly 34,000 compounds showed an effect of 50% or more. Shown is part of a subset that was picked to be rich in strong results.

Some compounds with known Percent Effect results, for comparison:
COc1ccc(CN2CCN(C(C)=O)CC3(CC(=O)N(C)C3)C2)cc1.O=C(O)C(F)(F)F (centres undefined) : 6.785%
Cc1ccccc1C(C(=O)O)N(C)CC1CCOCC1 (centres undefined) : -26.36%
Cc1ccc(CN(C)C(=O)CNC(=O)N2CCc3ccccc3C2)o1 : 1.19%
Cc1cccc(NC(=O)[C@@H]2CCCN2Cc2ccc(C#N)cc2F)n1 : -15.69%
O=C(NCc1ccccn1)c1cnc(C2CCCN2)cn1 (centres undefined) : -5.932%

QUERY: I'd like to know its Percent Effect. The compound in question is CCn1cc(NC(=O)NCCc2ccc3c(c2)OCCO3)cn1
RESULT: -0.8103%

QUERY: Could you do the same for CCC(=O)N1CCCC1(C)c1nc(C)no1 (centres undefined) , please?
RESULT: 15.01%

QUERY: And the next one, CC(=O)N1CCOC(c2c(C(=O)NCCN(C)C)sc3ccccc23)C1 (centres undefined) ?
RESULT: 3.684%

QUERY: Same again, this time with CC(Cn1ccnc1)NC(=O)C1(c2ccc(F)cc2)CCCC1 (centres undefined)
RESULT: 23.02%

QUERY: Would you mind doing CCOc1ccc(CCCC(=O)N2CCC(C(=O)NC)C2)cc1C (centres undefined) as well?
RESULT: -7.967%

QUERY: Try this compound next: Cc1cc(C)nc(C2CCN(C(=O)c3cnc(N(C)C)nc3)C2)n1 (centres undefined)
RESULT: -0.8427%

QUERY: Ok, now CCC(O)CN1CCN(C(=O)c2sccc2OC)CC1 (centres undefined)
RESULT: 5.511%

QUERY: Try this compound next: Cc1cccc(Nc2nccnc2C2CCCN(CC(=O)N(C)C)C2)n1 (centres undefined)
RESULT: 4.997%

QUERY: Check O=C(c1ccncc1)N1CCc2[nH]nc(Nc3ccccc3)c2C1 too.
RESULT: -2.217%

QUERY: What do you get for Cc1ccc(CNC2CCCN(Cc3noc(C4CC4)n3)C2)s1 (centres undefined) ?
RESULT: 14.12%

QUERY: For Cl.O=C(Nc1ccccn1)c1cncc(C2CCNCC2)n1 then?
RESULT: -0.4476%

QUERY: Same for CCOCC1CN(C(=O)c2cscn2)Cc2cnn(CC3CC3)c21 (centres undefined)
RESULT: 11.53%

QUERY: CC(C)c1cc(NC(=O)c2ccc(NC3CC3)nc2)[nH]n1 ?
RESULT: 15.54%

QUERY: Try this compound next: Cc1cc(Nc2ccccn2)nc(C2CCCN(CCO)C2)n1.O=CO (centres undefined)
RESULT: 9.991%

QUERY: Moving on to Cc1ccn(CCC(=O)N2CCCC(Cc3cccnc3)C2)n1 (centres undefined)
RESULT: 1.172%

QUERY: // query: O=C(Nc1cc(C2CCOCC2)[nH]n1)c1cscn1
RESULT: 17.19%

QUERY: Can you check Cc1cnc(CCNc2cccc(CC3CCCNC3)n2)s1.Cl (centres undefined) next?
RESULT: -6.2%

QUERY: Next record, please: O=C(O)C(F)(F)F.O=C1COC2(CCN(Cc3ccoc3)CC2)CN1c1ccsc1
RESULT: -2.422%

QUERY: Next record, please: CCc1nccn1CC1CCCN1S(=O)(=O)Cc1ccccc1 (centres undefined)
RESULT: 3.419%

QUERY: Record: O=C(CCn1ccnc1)N1CCC(c2nnc(-c3ccccn3)o2)CC1
RESULT: 18.74%

QUERY: Then what about the compound CN(C)c1cc(C(=O)N2CCN(c3cc(C#N)ccn3)CC2)ccn1 ?
RESULT: 0.09769%

QUERY: And for O=C1NCC2=C1C(c1ccc(O)cc1)Nc1ccccc1N2 (centres undefined) ?
RESULT: -23.23%
